Tested on: Bombyx mori
Assay: Induction of precocious metamorphosis in newly-molted fourth-instar larvae of Bombyx mori
Assay type: functional, organism-based
The source made the active and inactive calls. The rule behind the calls is not given here.
Can you answer with just one of these options? active, inactive

- Compound: "CCCCC(COc1ccc(C(=O)OCC)cc1)Oc1ccccc1 (centres undefined)"
  Answer Label: "active"
- Compound: "CCOC(=O)c1ccc(OCC(CC)OC(=O)C(C)(C)C)cc1 (centres undefined)"
  Answer Label: "inactive"
- Compound: "CCCCC(COc1ccc(C(=O)OCC)cc1)Cc1ccccc1 (racemic)"
  Answer Label: "active"

For the next question, use this compound.
Q. Test call, this compound: CCCCC(COc1ccc(C(=O)OCC)cc1)Oc1ccc(C)nc1 (centres undefined)
A. active
